assay: Metabolic stability in human hepatic microsome; type: in vitro ADME; conditions: microsomes, pH 7.4; human hepatic microsome, NADPH(+); read-out: CL NADPH(+)
Starred links: 1 amine or outer side, 2 acyl side, 3 side chain; linkers in the order of their positions; H or OH if unused. Positions of bridges follow the written chain, without caps; N, C: chain ends. Non-standard residues stand in square brackets, D forms with d. Residues, ends and D or L forms follow the SMILES beside them. *: point of attachment. Phe(3-(CH2)4CO) = O=C([C@H](Cc1cccc(CCCCC(=O)[*:3])c1)N[*:1])[*:2]; NMeF = CN[C@@H](Cc1ccccc1)C(=O)O; NMeL = CN[C@@H](CC(C)C)C(=O)O; NMeV = CN[C@H](C(=O)O)C(C)C; NMeA = CN[C@@H](C)C(=O)O; Piperidide = C1CCN(*)CC1; Sar = CNCC(=O)O; tBu = CC(C)(C)*
metric.name: microsomal CLint at 1 uM (µL/min/mg)
Just the number in µL/min/mg, nothing appended.

Consider the worked cases shown below.
compound	test.result
CC(C)C[C@@H]1NC(=O)C[C@@H](C(=O)N2CCCCC2)NC(=O)[C@H](CC(C)C)N(C)C(=O)[C@H](CC(C)C)NC(=O)[C@H](CC(C)C)N(C)C(=O)[C@H]([C@@H](C)O)NC(=O)CN(C)C1=O [DP-726] (L[Sar]T[NMeL]L[NMeL]D-Piperidide; lactam N-7)	75
CC(C)C[C@@H]1NC(=O)[C@@H](C(C)C)NC(=O)C[C@@H](C(=O)N2CCCCC2)NC(=O)[C@H](Cc2ccccc2)NC(=O)[C@H](CC(C)C)N(C)C(=O)[C@H](Cc2ccccc2)N(C)C(=O)[C@H](C)N(C)C(=O)[C@H]([C@@H](C)O)NC1=O [DP-702] ([dV]LT[NMeA][NMeF][NMeL]FD-Piperidide; lactam N-8)	123
CC(C)C[C@H]1C(=O)N(C)[C@@H](Cc2ccccc2)C(=O)N[C@@H](Cc2ccccc2)C(=O)N(C)[C@@H](C)C(=O)N(C)[C@@H](C(C)C)C(=O)N[C@@H]([C@@H](C)O)C(=O)N[C@H](C(=O)N2CCCCC2)CC(=O)N(C)[C@@H](C)C(=O)N[C@@H](COC(C)(C)C)C(=O)NCC(=O)N1C [DP-438] ([NMeA]S(tBu)G[NMeL][NMeF]F[NMeA][NMeV]TD-Piperidide; lactam N-10)	155

[Q] Item CC[C@H](C)[C@@H]1NC(=O)[C@H](C)N(C)C(=O)CCCCc2cccc(c2)C[C@@H](C(=O)N2CCCCC2)NC(=O)[C@H](CC(C)C)N(C)C(=O)[C@H](C)N(C)C(=O)[C@H]([C@@H](C)O)NC(=O)[C@H](Cc2ccccc2)N(C)C(=O)[C@H](Cc2ccccc2)N(C)C(=O)[C@H](CC(C)C)N(C)C1=O [DP-849] ([NMeA]I[NMeL][NMeF][NMeF]T[NMeA][NMeL][Phe(3-(CH2)4CO)]-Piperidide; lactam N-9) has what recorded microsomal CLint at 1 uM?
[A] 202

[Q] Using the record for CC[C@H](C)[C@@H]1NC(=O)CCCCc2cccc(c2)C[C@@H](C(=O)N2CCCCC2)NC(=O)[C@H](C)N(C)C(=O)[C@H](CC(C)C)N(C)C(=O)CN(C)C(=O)[C@H]([C@@H](C)O)NC(=O)[C@H](Cc2ccccc2)N(C)C(=O)[C@H](CC(C)C)N(C)C(=O)[C@H](C)NC(=O)[C@H](C(C)C)N(C)C(=O)[C@H](Cc2ccccc2)N(C)C1=O [DP-876] (I[NMeF][NMeV]A[NMeL][NMeF]T[Sar][NMeL][NMeA][Phe(3-(CH2)4CO)]-Piperidide; lactam N-11) , report its microsomal CLint at 1 uM.
[A] 103

[Q] Quick one: microsomal CLint at 1 uM of CC(C)C[C@@H]1NC(=O)[C@H](Cc2ccccc2)N(C)C(=O)[C@H](C(C)C)N(C)C(=O)CN(C)C(=O)[C@H]([C@@H](C)O)NC(=O)[C@H](Cc2ccccc2)N(C)C(=O)[C@H](CC(C)C)N(C)C(=O)[C@H](CC(C)C)N(C)C(=O)[C@H](C)NC(=O)[C@@H](C(C)C)NC(=O)C[C@@H](C(=O)N(C)[C@@H](Cc2ccccc2)C(=O)N[C@@H](C)C(=O)N2CCCCC2)NC1=O [DP-484] ([dV]A[NMeL][NMeL][NMeF]T[Sar][NMeV][NMeF]LD[NMeF]A-Piperidide; lactam N-11) ?
[A] 29
